Origin of values: ChEMBL document CHEMBL1149798

Tested on: HL-60
protocol: Cytotoxicity against human HL60 cells after 72 hrs by MTT assay
Format: functional, cell-based
conditions: HL-60, 72 h
value.type: IC50

CCOC(=O)C(C(C)=O)C(c1ccc(C(=O)O)cc1)c1c(O)c2ccccc2oc1=O (stereo not drawn) | > 200 µM
CCOC(=O)C(C(C)=O)C(c1ccc(O)cc1)c1c(O)c2ccccc2oc1=O (stereo not drawn) | > 200 µM
CCOC(=O)C(C(C)=O)C(c1ccc([N+](=O)[O-])cc1)c1c(O)c2ccccc2oc1=O (stereo not drawn) | > 200 µM
